Tested on: HC-1 (Other Blood Carcinomas)
Experiment: combination Emax (second highest fraction inhibited in the dose matrix, 72 h); higher = more inhibition; extreme values may be limits of the assay
reportedProperty: combination Emax

For orientation, consider the following solved cases.
Could you share which combination Emax value was measured for NC1(C(=O)N[C@@H](CCO)c2ccc(Cl)cc2)CCN(c2ncnc3[nH]ccc23)CC1 [Capivasertib] + CC(C)n1c(=O)n(C)c2cnc3cc(F)c(-c4ccc(OCCCN5CCCCC5)nc4)cc3c21 [AZD1390] (first compound max 10 µM, 7x7, partner max 0.3 µM) ? 0.508

Repeat for the following compound: CN(CCO)CC[C@H](CSc1ccccc1)Nc1ccc(S(=O)(=O)NC(=O)c2ccc(N3CCC([C@@H](O)c4ccccc4-c4ccc(Cl)cc4)CC3)cc2)cc1S(=O)(=O)C(F)(F)F [AZD4320] + CCN(CCO)CCCOc1ccc2c(Nc3cc(CC(=O)Nc4cccc(F)c4)[nH]n3)ncnc2c1 [AZD2811] (first compound max 1 µM, 7x7, partner max 1 µM) 0.969

New cases:
Give its combination Emax value. Item: C[C@@H](c1ccc2nccn2c1)n1nnc2ncc(-c3cnn(C)c3)nc21 [Savolitinib] + Cc1c2c(nn1C)CSCc1cc(n(C)n1)CSc1cc(c3ccccc3c1)OCCCc1c(C(=O)O)n(C)c3c-2c(Cl)ccc13 [AZD5991] (first compound max 1 µM, 7x7, partner max 1 µM) 0.216

----------
Assignment: determine reported combination Emax for the given molecules.
System: EW-3 (Ewing's Sarcoma)
Assay: combination Emax (second highest fraction inhibited in the dose matrix, 72 h); higher = more inhibition; extreme values may be limits of the assay
Numbers only.

Worked cases, answers included:
GET /values?readout=combination Emax&item= CS(=O)(=O)CCNCc1ccc(-c2ccc3ncnc(Nc4ccc(OCc5cccc(F)c5)c(Cl)c4)c3c2)o1 [Lapatinib] + Cn1cnc2c(F)c(Nc3ccc(Br)cc3Cl)c(C(=O)NOCCO)cc21 [Selumetinib] (first compound max 10 µM, 7x7, partner max 10 µM) 0.405

Can you handle Cc1cc2ncnn2cc1Nc1ncc2c(n1)n(C1CCOCC1)c(=O)n2C [AZD7648] + CCN(CCO)CCCOc1ccc2c(Nc3cc(CC(=O)Nc4cccc(F)c4)[nH]n3)ncnc2c1 [AZD2811] (first compound max 10 µM, 7x7, partner max 1 µM) next? 0.397

Please do the same for C=CCn1c(=O)c2cnc(Nc3ccc(N4CCN(C)CC4)cc3)nc2n1-c1cccc(C(C)(C)O)n1 [AZD1775] + C[C@@H]1COCCN1C2=NC(=NC(=C2)C3(CC3)[S@](=N)(=O)C)C4=C5C=CNC5=NC=C4 [AZD6738] (first compound max 1 µM, partner max 10 µM) as well. 0.804

Dear reader, for each entry below, please note its combination Emax.
1. Cn1cnc2c(F)c(Nc3ccc(Br)cc3Cl)c(C(=O)NOCCO)cc21 [Selumetinib] + CCN(CCO)CCCOc1ccc2c(Nc3cc(CC(=O)Nc4cccc(F)c4)[nH]n3)ncnc2c1 [AZD2811] (first compound max 10 µM, 7x7, partner max 1 µM)
2. COc1cccc(OCCCN)c1-c1cc(Nc2cnc(C#N)cn2)n[nH]1 [Prexasertib] + O=C(c1cc(Cc2n[nH]c(=O)c3ccccc23)ccc1F)N1CCN(C(=O)C2CC2)CC1 [Olaparib] (first compound max 1 µM, 7x7, partner max 10 µM)
3. CN(CCO)CC[C@H](CSc1ccccc1)Nc1ccc(S(=O)(=O)NC(=O)c2ccc(N3CCC([C@@H](O)c4ccccc4-c4ccc(Cl)cc4)CC3)cc2)cc1S(=O)(=O)C(F)(F)F [AZD4320] + C[C@@H](Nc1cc(F)cc(F)c1)c1cc(C(=O)N(C)C)cc2c(=O)cc(N3CCOCC3)oc12 [AZD8186] (first compound max 1 µM, 7x7, partner max 3 µM)
4. Cc1c2c(nn1C)CSCc1cc(n(C)n1)CSc1cc(c3ccccc3c1)OCCCc1c(C(=O)O)n(C)c3c-2c(Cl)ccc13 [AZD5991] + CN(C)CCCOc1ccc(-c2ccc3ncc4c(c3c2)n(C2CCOCC2)c(=O)n4C)cn1 [AZD0156] (first compound max 1 µM, 7x7, partner max 1 µM)
5. COc1cccc(OCCCN)c1-c1cc(Nc2cnc(C#N)cn2)n[nH]1 [Prexasertib] + C=CCn1c(=O)c2cnc(Nc3ccc(N4CCN(C)CC4)cc3)nc2n1-c1cccc(C(C)(C)O)n1 [AZD1775] (first compound max 1 µM, partner max 1 µM)

1: 0.444; 2: 0.815; 3: 0.898; 4: 0.662; 5: 0.732

----------
System: H-EMC-SS (Chondrosarcoma)
Experiment: combination Emax (second highest fraction inhibited in the dose matrix, 72 h); higher = more inhibition; extreme values may be limits of the assay
Hi there, I'd appreciate the recorded combination Emax for every entry that follows.
Give bare numbers.

For orientation, consider the following solved cases.
Could you share which combination Emax value was measured for CCN(CCO)CCCOc1ccc2c(Nc3cc(CC(=O)Nc4cccc(F)c4)[nH]n3)ncnc2c1 [AZD2811] + C[C@@H]1COCCN1C2=NC(=NC(=C2)C3(CC3)[S@](=N)(=O)C)C4=C5C=CNC5=NC=C4 [AZD6738] (first compound max 1 µM, 7x7, partner max 10 µM) ? 0.412

Try this molecule next: O=C(c1cc(Cc2n[nH]c(=O)c3ccccc23)ccc1F)N1CCN(C(=O)C2CC2)CC1 [Olaparib] + COc1nnc2ccc(N3CCC(c4ccc(OCCN5CCN(C)C(=O)[C@H]5C)cc4)CC3)nn12 [AZD5153] (first compound max 10 µM, 7x7, partner max 1 µM) 0.218

How about COc1nnc2ccc(N3CCC(c4ccc(OCCN5CCN(C)C(=O)[C@H]5C)cc4)CC3)nn12 [AZD5153] + CC1(C)CCC(CN2CCN(c3ccc(C(=O)NS(=O)(=O)c4ccc(NCC5CCOCC5)c([N+](=O)[O-])c4)c(Oc4cnc5[nH]ccc5c4)c3)CC2)=C(c2ccc(Cl)cc2)C1 [Venetoclax] (first compound max 1 µM, 7x7, partner max 1 µM) ? 0.27

Param item: COc1cccc(OCCCN)c1-c1cc(Nc2cnc(C#N)cn2)n[nH]1 [Prexasertib] + CN(C)CCCOc1ccc(-c2ccc3ncc4c(c3c2)n(C2CCOCC2)c(=O)n4C)cn1 [AZD0156] (first compound max 1 µM, 7x7, partner max 1 µM) 0.493

Thanks! And NC1(C(=O)N[C@@H](CCO)c2ccc(Cl)cc2)CCN(c2ncnc3[nH]ccc23)CC1 [Capivasertib] + COc1nnc2ccc(N3CCC(c4ccc(OCCN5CCN(C)C(=O)[C@H]5C)cc4)CC3)nn12 [AZD5153] (first compound max 10 µM, 7x7, partner max 1 µM) ? 0.351

Could you do the same for Cc1c2c(nn1C)CSCc1cc(n(C)n1)CSc1cc(c3ccccc3c1)OCCCc1c(C(=O)O)n(C)c3c-2c(Cl)ccc13 [AZD5991] + CN(C)CCCOc1ccc(-c2ccc3ncc4c(c3c2)n(C2CCOCC2)c(=O)n4C)cn1 [AZD0156] (first compound max 1 µM, 7x7, partner max 1 µM) , please? 0.431

And for C=CCn1c(=O)c2cnc(Nc3ccc(N4CCN(C)CC4)cc3)nc2n1-c1cccc(C(C)(C)O)n1 [AZD1775] + CCc1c2c(nc3ccc(O)cc13)-c1cc3c(c(=O)n1C2)COC(=O)[C@]3(O)CC [SN-38] (first compound max 1 µM, partner max 0.3 µM) ? 0.561

Input Cc1c2c(nn1C)CSCc1cc(n(C)n1)CSc1cc(c3ccccc3c1)OCCCc1c(C(=O)O)n(C)c3c-2c(Cl)ccc13 [AZD5991] + C1CN(CCC1(C(=O)N[C@@H](CCO)C2=CC=C(C=C2)Cl)N)C3=NC=NC4=C3C=CN4 [Capivasertib] (first compound max 1 µM, 7x7, partner max 3 µM) 0.647

Now this one: CN(C)CCCOc1ccc(-c2ccc3ncc4c(c3c2)n(C2CCOCC2)c(=O)n4C)cn1 [AZD0156] + O=C(c1cc(Cc2n[nH]c(=O)c3ccccc23)ccc1F)N1CCN(C(=O)C2CC2)CC1 [Olaparib] (first compound max 3 µM, partner max 3 µM) 0.258

Check CN(CCO)CC[C@H](CSc1ccccc1)Nc1ccc(S(=O)(=O)NC(=O)c2ccc(N3CCC([C@@H](O)c4ccccc4-c4ccc(Cl)cc4)CC3)cc2)cc1S(=O)(=O)C(F)(F)F [AZD4320] + Cn1cnc2c(F)c(Nc3ccc(Br)cc3Cl)c(C(=O)NOCCO)cc21 [Selumetinib] (first compound max 1 µM, 7x7, partner max 3 µM) too. 0.691

Quick one: give me combination Emax for each item below, same order please.
1. N#Cc1cnc(Nc2cc(NC[C@H]3CNCCO3)c(C(F)(F)F)cn2)cn1 [SRA737] + Nc1ccn([C@@H]2O[C@H](CO)[C@@H](O)C2(F)F)c(=O)n1 [Gemcitabine] (first compound max 10 µM, 7x7, partner max 0.3 µM)
2. CC1(C)CCC(CN2CCN(c3ccc(C(=O)NS(=O)(=O)c4ccc(NCC5CCOCC5)c([N+](=O)[O-])c4)c(Oc4cnc5[nH]ccc5c4)c3)CC2)=C(c2ccc(Cl)cc2)C1 [Venetoclax] + Cn1cnc2c(F)c(Nc3ccc(Br)cc3Cl)c(C(=O)NOCCO)cc21 [Selumetinib] (first compound max 1 µM, 7x7, partner max 3 µM)
3. CN(CCO)CC[C@H](CSc1ccccc1)Nc1ccc(S(=O)(=O)NC(=O)c2ccc(N3CCC([C@@H](O)c4ccccc4-c4ccc(Cl)cc4)CC3)cc2)cc1S(=O)(=O)C(F)(F)F [AZD4320] + Cc1cc2ncnn2cc1Nc1ncc2c(n1)n(C1CCOCC1)c(=O)n2C [AZD7648] (first compound max 1 µM, 7x7, partner max 10 µM)

1. 0.542
2. 0.341
3. 0.524
